target.under.test: T1, 006 PSMA Fab
T1 construct: also called Anti-PSMA Fab
procedure.text: clonal phage ELISA; biotinylated PSMA Fab on neutravidin plate, PSMA antigen as competitor, anti-M13-HRP
Could you label it 1.0 if measured phage binding ELISA signal (Anti-PSMA Fab, wells pre-incubated with PSMA antigen) is 0.07 or higher, and 0.0 otherwise?

[ask] # check: phage binding ELISA signal (Anti-PSMA Fab, wells pre-incubated with PSMA antigen) of EVKKCVPAWMCESQ [Phage-4004] is greater than or equal to 0.07
[reply] 0.0

[ask] # check: phage binding ELISA signal (Anti-PSMA Fab, wells pre-incubated with PSMA antigen) of PTSFCRPPWMCEGL [Phage-4007] is greater than or equal to 0.07
[reply] 0.0

[ask] # check: phage binding ELISA signal (Anti-PSMA Fab, wells pre-incubated with PSMA antigen) of GTQACVPLWMCEGI [Phage-3996] is greater than or equal to 0.07
[reply] 1.0

[ask] # check: phage binding ELISA signal (Anti-PSMA Fab, wells pre-incubated with PSMA antigen) of GPKLCLPMWMCQGF [Phage-4009] is greater than or equal to 0.07
[reply] 0.0

[ask] # check: phage binding ELISA signal (Anti-PSMA Fab, wells pre-incubated with PSMA antigen) of MTNMCRPSWMCAVF [Phage-4002] is greater than or equal to 0.07
[reply] 1.0
